Where these numbers come from: ChEMBL document CHEMBL1141388

- assayed-target: Procathepsin L (Homo sapiens, UniProt P07711)
- Sequence (P07711 whole entry): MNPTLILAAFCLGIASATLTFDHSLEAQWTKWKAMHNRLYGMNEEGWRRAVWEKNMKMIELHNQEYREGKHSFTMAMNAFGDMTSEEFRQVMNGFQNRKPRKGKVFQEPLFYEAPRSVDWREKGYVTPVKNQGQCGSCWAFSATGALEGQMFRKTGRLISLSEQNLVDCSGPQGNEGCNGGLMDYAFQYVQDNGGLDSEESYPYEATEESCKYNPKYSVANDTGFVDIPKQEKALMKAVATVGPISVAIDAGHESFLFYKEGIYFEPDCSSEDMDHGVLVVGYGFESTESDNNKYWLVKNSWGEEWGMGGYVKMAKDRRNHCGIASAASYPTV
- assay-protocol: Inhibition of human recombinant cathepsin L
Here, each record is paired with measured IC50 data.

smiles-data	assayed-target	IC50
CN1CCC(Oc2ccc(CCNC(=O)c3cnc(C#N)nc3NCC(C)(C)C)cc2)CC1	Procathepsin L (Homo sapiens, UniProt P07711)	1700 nM
COc1ccc(CCNC(=O)c2cnc(C#N)nc2NCC(C)(C)C)cc1OCCn1ccnc1	Procathepsin L (Homo sapiens, UniProt P07711)	580 nM
CN1CCN(Cc2ccc(CCNC(=O)c3cnc(C#N)nc3NCC(C)(C)C)cc2)CC1	Procathepsin L (Homo sapiens, UniProt P07711)	330 nM
N#Cc1ncc(C(=O)NCCc2ccc(N3CCCC3)cc2)c(NC2CCCCC2)n1	Procathepsin L (Homo sapiens, UniProt P07711)	5100 nM
